This collection of values is drawn from ChEMBL document CHEMBL1146725.

# key: entry, value: pIC50
Molecular target: Neuropeptide Y receptor type 5 (Homo sapiens, UniProt Q15761)
Sequence (Q15761 whole entry): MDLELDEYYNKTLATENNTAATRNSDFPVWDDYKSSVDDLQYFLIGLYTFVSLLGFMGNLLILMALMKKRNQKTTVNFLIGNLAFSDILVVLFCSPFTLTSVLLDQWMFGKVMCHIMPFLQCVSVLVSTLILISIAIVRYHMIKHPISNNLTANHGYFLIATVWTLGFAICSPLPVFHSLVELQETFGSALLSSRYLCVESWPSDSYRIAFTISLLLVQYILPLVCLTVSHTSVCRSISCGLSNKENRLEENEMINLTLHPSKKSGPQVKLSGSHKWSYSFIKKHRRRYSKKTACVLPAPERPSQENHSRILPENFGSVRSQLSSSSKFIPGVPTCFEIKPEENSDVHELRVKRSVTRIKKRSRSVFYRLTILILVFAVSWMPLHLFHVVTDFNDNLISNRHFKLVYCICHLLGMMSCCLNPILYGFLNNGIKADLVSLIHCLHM
Test: In vitro binding affinity against human neuropeptide Y5 receptor
Keep in mind that pIC50 stands for -log10 of concentration in molar terms.

Sample records with pIC50:
>  <query.smiles>
COCC(=O)N1CCC(CNc2nc3c(s2)CCOc2ccc(F)cc2-3)CC1

>  <reported.result>
7.43

$$$$
>  <query.smiles>
CC(=O)N1CCC(CNc2nc3c(s2)CCOc2ccc(F)cc2-3)CC1

>  <reported.result>
7.16

$$$$
>  <query.smiles>
COCCC(=O)N1CCC(CNc2nc3c(s2)CCOc2ccc(F)cc2-3)CC1

>  <reported.result>
7.66

$$$$

Looking up O=C([C@@H]1CCCO1)N1CCC(CNc2nc3c(s2)CCOc2ccc(F)cc2-3)CC1 , I found its pIC50 recorded as 7.72

The molecule listed as O=C(CN1CCOCC1)N1CCC(CNc2nc3c(s2)CCOc2ccc(F)cc2-3)CC1 shows pIC50 equal to 7.39

Query CN(CC(=O)N1CCC(CNc2nc3c(s2)CCOc2ccc(F)cc2-3)CC1)CC1CC1 yields pIC50 of 7.74

// O=C(CN1CCCCC1)N1CCC(CNc2nc3c(s2)CCOc2ccc(F)cc2-3)CC1 : pIC50 value = 7.15

Notebook: O=C([C@H]1CCCO1)N1CCC(CNc2nc3c(s2)CCOc2ccc(F)cc2-3)CC1 , pIC50 read as 8.30

====

concentration at 2 h overview
Assay: Concentration (30 mg/kg, p.o.) in rat hypothalamus after 2 hours
Type: ADME, organism-based
Settings: hypothalamus, po
Report as: number unit

Reference set (4 entries):
>  <molecule>
CC(=O)N1CCC(CNc2nc3c(s2)CCCc2ccc(F)cc2-3)CC1

>  <concentration at 2 h>
3700 ng/g

$$$$
>  <molecule>
O=C(C1CCOC1)N1CCC(CNc2nc3c(s2)CCCc2ccc(F)cc2-3)CC1 (stereo not given)

>  <concentration at 2 h>
1220 ng/g

$$$$
>  <molecule>
Cc1ccc2c(c1)-c1nc(NCC3CCN(C(=O)C(C)C)CC3)sc1CCO2

>  <concentration at 2 h>
2420 ng/g

$$$$
>  <molecule>
CCCCC(=O)N1CCC(CNc2nc3c(s2)CCOc2ccc(F)cc2-3)CC1

>  <concentration at 2 h>
2230 ng/g

$$$$

Then there is this molecule:
Recorded result, O=C([C@H]1CCCO1)N1CCC(CNc2nc3c(s2)CCOc2ccc(F)cc2-3)CC1 , concentration at 2 h: 2440 ng/g
